- target entity: Adenosine kinase (Homo sapiens)
- measurement protocol: Inhibition of cytosolic adenosine kinase
Returns: string. Value is rule met if measured IC50 is below 0.008 µM, and rule not met if it is greater than or equal to it.

In: A record lists CC(C)(C)OC(=O)N1CCN(c2ccc(C#Cc3ncnc(N)c3-c3ccc(Cl)cc3)cn2)CC1 . Is its IC50 below 0.008 µM?
Out: rule not met

In: A record lists Cc1nc(N)c(-c2ccccc2)c(C#Cc2ccc(N(C)C)cc2)n1 . Is its IC50 below 0.008 µM?
Out: rule not met

In: A record lists C#Cc1ncnc(N)c1-c1ccc2c(c1)OCO2 . Is its IC50 below 0.008 µM?
Out: rule not met

In: A record lists Nc1ncnc(C#Cc2ccc(N3CCOCC3)nc2)c1-c1cc2ccccc2s1 . Is its IC50 below 0.008 µM?
Out: rule met

In: A record lists CN(C)c1ccc(C#Cc2ncnc(NCCc3c[nH]cn3)c2-c2ccc(Cl)cc2)cc1 . Is its IC50 below 0.008 µM?
Out: rule not met

In: A record lists CN(C)c1ccc(C#Cc2ncnc(N3CCOCC3)c2-c2ccc(Cl)cc2)cc1 . Is its IC50 below 0.008 µM?
Out: rule met

In: A record lists CN(C)c1ccc(C#Cc2ncnc(NCCc3c[nH]c4ccccc34)c2-c2ccc(Cl)cc2)cc1 . Is its IC50 below 0.008 µM?
Out: rule not met

In: A record lists CN(C)c1ccc(C#Cc2ncnc(N)c2C(c2ccccc2)c2ccccc2)cc1 . Is its IC50 below 0.008 µM?
Out: rule not met

In: A record lists Cc1ccc(-c2c(N)ncnc2C#Cc2ccc(N(C)C)cc2)cc1 . Is its IC50 below 0.008 µM?
Out: rule not met

In: A record lists CN(C)c1cc(C#Cc2ncnc(N)c2-c2ccc3c(c2)OCO3)cnc1N1CCOCC1 . Is its IC50 below 0.008 µM?
Out: rule not met

In: A record lists COc1ccc(-c2c(N)ncnc2C#Cc2ccc(N(C)C)cc2)cc1OC . Is its IC50 below 0.008 µM?
Out: rule not met

====

- target entity: Adenosine kinase (Homo sapiens)
- measurement protocol: Inhibition of cytosolic adenosine kinase
Listing: pIC50 of selected compounds
Reminder that pIC50 means the negative base-10 logarithm of the concentration expressed in mol/L.

In: Return the recorded pIC50 value; entry: Nc1ncnc(C#Cc2ccc(N3CCOCC3)nc2)c1-c1ccc2c(c1)OCO2
Out: 8.00

In: Return the recorded pIC50 value; entry: CC(C)c1ccc(C#Cc2ncnc(N)c2-c2ccc(Cl)cc2)cc1
Out: 7.30

In: Return the recorded pIC50 value; entry: Nc1ncnc(C#Cc2ccc(N3CCOCC3)nn2)c1-c1ccc(Cl)cc1
Out: 7.35

In: Return the recorded pIC50 value; entry: Nc1ncnc(C#Cc2cncc(N3CCOCC3)c2)c1-c1ccc(Cl)cc1
Out: 8.10

In: Return the recorded pIC50 value; entry: Nc1ncnc(C#Cc2ccc(N3CCOCC3)cc2)c1-c1ccc(Cl)cc1
Out: 7.77

In: Return the recorded pIC50 value; entry: CN(C)c1ccc(C#Cc2ncnc(N(C)C)c2-c2ccc(Cl)cc2)cc1
Out: 6.52

In: Return the recorded pIC50 value; entry: CN(C)c1ccc(C#Cc2ncnc(N3CCNCC3)c2-c2ccc(Cl)cc2)cc1
Out: 8.10

====

- target entity: Adenosine kinase (Homo sapiens, UniProt P55263)
- Sequence (P55263 whole entry): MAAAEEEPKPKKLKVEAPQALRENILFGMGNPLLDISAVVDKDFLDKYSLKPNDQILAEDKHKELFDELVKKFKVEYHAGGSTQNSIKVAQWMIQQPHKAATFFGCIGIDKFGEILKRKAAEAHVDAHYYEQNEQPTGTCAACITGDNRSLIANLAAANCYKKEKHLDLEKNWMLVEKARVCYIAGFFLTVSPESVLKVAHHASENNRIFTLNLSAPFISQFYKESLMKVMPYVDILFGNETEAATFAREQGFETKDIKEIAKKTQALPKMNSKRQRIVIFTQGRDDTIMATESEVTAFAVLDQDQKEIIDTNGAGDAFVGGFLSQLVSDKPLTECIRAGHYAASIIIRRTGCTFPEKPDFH
- measurement protocol: Inhibition of cytosolic adenosine kinase
quantity name: pIC50
Reminder that pIC50 means the negative base-10 logarithm of the concentration expressed in mol/L.

Some entries whose results are on file:
Nc1ncnc(C#Cc2ccc(N3CCOCC3)nc2)c1-c1ccc(Cl)cc1: 8.52
COCCN(C)c1ccc(C#Cc2ncnc(N)c2-c2ccc(Cl)cc2)cn1: 9.00
CN(C)c1ccc(C#Cc2ncnc(N)c2-c2ccc(N(C)C)cc2)cc1: 8.30
Nc1ncnc(C#Cc2cnc(N3CCOCC3)nc2)c1-c1ccc(Cl)cc1: 8.10

Below: the item to evaluate.
In: Return the recorded pIC50 value; entry: CN(C)c1cc(N2CCOCC2)ncc1C#Cc1ncnc(N)c1-c1ccc2c(c1)OCO2
Out: 7.14
